Data origin: paper PMC4335062

Molecular target: MAFF (Homo sapiens)
Construct: made in house
Sequence (Q9ULX9 51-114 limits assumed): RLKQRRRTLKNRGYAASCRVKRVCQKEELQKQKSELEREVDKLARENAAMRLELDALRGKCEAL
Test: Direct-binding FRET assay
Settings: 23°C; C-terminal fluorescein design as donor, TAMRA target titrated; read-out: Kd
pKd: −log10 of the molar value. Where no end group is shown, it is not given here.
parameterMeasured: pKd

Reported pKd for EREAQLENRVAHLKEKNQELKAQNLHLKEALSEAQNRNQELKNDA [XBP1-d1] was < 6.00

* * *

Biological target: MAFG (Homo sapiens, UniProt O15525)
Sequence (O15525 51-114 limits assumed): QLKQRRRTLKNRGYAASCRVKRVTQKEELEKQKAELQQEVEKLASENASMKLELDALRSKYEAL
Experiment: Direct-binding FRET assay
Set-up: made in house
Conditions: 37°C; N-terminal rhodamine design; mean or single; read-out: Kd
Procedure: The direct binding assay was performed manually in 384-well plates and is similar to a previously described assay. Wells were filled with 20 μL of 1 mM TCEP-HCl. […] Briefly, the Kd of the designed peptide homodimer was experimentally determined and used with previously determined target homodimer Kd values to determine the heterodimer Kd. […] A minimum 15% change in the donor fluorescence upon titrating the acceptor peptide from 0 to 1000 nM was required for a fit to be attempted. […]
Where no end group is shown, it is not given here.
parameterMeasured: Kd

Examples with answers:
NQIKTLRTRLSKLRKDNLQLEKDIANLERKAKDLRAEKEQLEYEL [ATF4-d1] = > 1000 nM
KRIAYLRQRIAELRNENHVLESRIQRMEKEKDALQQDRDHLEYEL [ATF5-d1] = > 1000 nM

Alright, here's another sequence for you.
// recorded Kd for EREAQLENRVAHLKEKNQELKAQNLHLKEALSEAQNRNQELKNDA [XBP1-d1] : > 1000 nM
